The entries below come with measured pIC50 values attached.
molecular target: UniProt:P00533; experiment: Inhibition of EGF-stimulated tyrosine phosphorylation in A431 cells.
Sequence (P00533 whole entry): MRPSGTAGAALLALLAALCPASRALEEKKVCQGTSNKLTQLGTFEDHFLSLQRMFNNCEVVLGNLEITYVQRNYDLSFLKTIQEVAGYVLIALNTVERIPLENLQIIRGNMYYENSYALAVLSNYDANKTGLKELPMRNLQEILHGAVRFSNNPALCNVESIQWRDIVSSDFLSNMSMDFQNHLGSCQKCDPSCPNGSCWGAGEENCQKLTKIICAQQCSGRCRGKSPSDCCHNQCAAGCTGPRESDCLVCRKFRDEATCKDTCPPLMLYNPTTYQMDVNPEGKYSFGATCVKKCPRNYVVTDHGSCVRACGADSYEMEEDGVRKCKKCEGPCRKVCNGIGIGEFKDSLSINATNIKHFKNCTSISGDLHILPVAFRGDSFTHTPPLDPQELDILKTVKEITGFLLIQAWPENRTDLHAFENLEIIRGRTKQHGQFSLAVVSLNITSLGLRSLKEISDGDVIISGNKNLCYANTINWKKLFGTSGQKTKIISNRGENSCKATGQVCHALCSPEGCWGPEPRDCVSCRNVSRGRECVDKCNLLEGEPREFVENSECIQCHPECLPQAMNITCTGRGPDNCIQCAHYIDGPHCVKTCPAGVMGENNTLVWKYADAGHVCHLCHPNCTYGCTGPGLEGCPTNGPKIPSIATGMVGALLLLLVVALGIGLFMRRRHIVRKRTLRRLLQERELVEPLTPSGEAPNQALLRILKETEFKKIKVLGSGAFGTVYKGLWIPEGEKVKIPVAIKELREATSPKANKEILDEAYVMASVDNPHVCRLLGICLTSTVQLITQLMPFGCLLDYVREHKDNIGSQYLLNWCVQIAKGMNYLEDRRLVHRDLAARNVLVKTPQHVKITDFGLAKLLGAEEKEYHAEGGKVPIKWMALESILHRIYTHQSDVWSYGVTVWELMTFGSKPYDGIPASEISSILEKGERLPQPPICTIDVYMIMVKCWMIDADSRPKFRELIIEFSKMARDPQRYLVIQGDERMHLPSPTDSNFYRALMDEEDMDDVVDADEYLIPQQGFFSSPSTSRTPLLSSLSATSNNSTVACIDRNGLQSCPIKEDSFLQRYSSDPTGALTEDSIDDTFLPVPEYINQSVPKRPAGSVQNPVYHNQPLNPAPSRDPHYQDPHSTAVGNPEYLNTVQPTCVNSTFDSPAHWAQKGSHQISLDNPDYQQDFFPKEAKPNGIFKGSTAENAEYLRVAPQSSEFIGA
Value format note: pIC50 is -log10 of concentration (mol/L); just state the number.

// solved cases for pIC50 follow
>>> reported("Nc1cccc(-c2[nH]nc3ncnc(Nc4cccc(Cl)c4)c23)c1")
6.10
>>> reported("Clc1cccc(Nc2[nH]cnc3nnc(NCc4ccccc4)c2-3)c1")
8.52
>>> reported("Clc1cccc(CNc2[nH]nc3ncnc(Nc4cccc(Cl)c4)c23)c1")
5.82
>>> reported("Clc1cccc(Nc2[nH]nc3ncnc(NCc4ccccc4)c23)c1")
5.82

Here's the next entry for you.
### Prompt I'd like to know its pIC50. The compound in question is `CN(C)c1ccc(Nc2[nH]nc3ncnc(Nc4cccc(Cl)c4)c23)cc1`
### Response 5.82
